- TARGET UNDER TEST: Estrogen-related receptor gamma (Homo sapiens)
- MEASUREMENT NOTES: ATG_ERRg_TRANS: Attagene TRANS-FACTORIAL HepG2 Assay for human Estrogen-Related Receptor gamma (ERRg) (AID 2282977);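 further: hits increase reporter signal over DMSO so potencies reflect activators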
- TEST PARAMETERS: HepG2 Attagene TRANS reporter, ERRg transactivation
Records with an inconclusive call do not appear. The source made the active and inactive calls. How the source made its calls: active means hit-call score of the fitted dose curve at least 0.9, where 1 is the maximum; inconclusive means response in the unintended direction; inactive means score below 0.9.
MEASUREMENT NAME: outcome

Here are 5 molecules together with their reported answers.
| MOLECULE | outcome |
| --- | --- |
| C[N+](=O)[O-] | inactive |
| O=S(=O)(c1ccccc1)c1ccccc1 | inactive |
| C=CC(=O)OCC(CC)CCCC (stereo unspecified) | inactive |
| O=[N+]([O-])c1cc([N+](=O)[O-])c2ccccc2c1 | inactive |
| COC(C)(C)CCC[C@H](C)C/C=C/C(C)=C/C(=O)OC(C)C | inactive |

Recorded outcome of O=CNC(N1CCN(C(NC=O)C(Cl)(Cl)Cl)CC1)C(Cl)(Cl)Cl (stereo unspecified) , please.
inactive

Recorded outcome of C=C(Cl)Cl , please.
inactive

Recorded outcome of COC(=O)COc1ccc(Cl)cc1Cl , please.
inactive

Recorded outcome of CCCCCCC1CCOC1=O (stereo unspecified) , please.
inactive

Recorded outcome of N#Cc1cc(I)c(O)c(I)c1 , please.
inactive

Recorded outcome of CCOP(=O)(OCC)OCC , please.
inactive
